Measured pEC50 of individual entries
molecular target: recombinant human GM-CSF protein (human, UniProt P04141 18-144); assay: ELISA
Sequence (P04141 18-144): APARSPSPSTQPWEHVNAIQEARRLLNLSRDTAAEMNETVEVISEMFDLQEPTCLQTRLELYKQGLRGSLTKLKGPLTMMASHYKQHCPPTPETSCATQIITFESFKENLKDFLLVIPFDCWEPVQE
The value called pEC50 is obtained by taking minus log10 of the concentration in mol/L.

Hu23F4-26 (antibody, V domains shown) VH: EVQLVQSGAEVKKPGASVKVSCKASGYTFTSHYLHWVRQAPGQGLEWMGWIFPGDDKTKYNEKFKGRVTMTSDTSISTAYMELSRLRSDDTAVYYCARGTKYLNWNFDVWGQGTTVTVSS VL: DIQLTQSPSFLSASVGDRVTITCKANQNVGTTLAWYQQKPGKAPKALIYSASYRYSGVPDRFSGSGSGTDFTLTISSLQPEDFATYYCHQYTTYPLTFGGGTKVEIK	10.46

Let's switch to this binder now.
Hu23F4-27 (antibody, V domains shown) VH: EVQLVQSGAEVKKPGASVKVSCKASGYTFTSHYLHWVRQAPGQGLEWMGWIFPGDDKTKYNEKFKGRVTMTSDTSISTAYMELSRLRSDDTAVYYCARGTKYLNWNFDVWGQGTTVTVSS VL: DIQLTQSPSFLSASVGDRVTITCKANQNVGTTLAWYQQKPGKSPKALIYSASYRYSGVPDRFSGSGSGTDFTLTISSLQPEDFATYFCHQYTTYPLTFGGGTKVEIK has a reported pEC50 of 10.42
